# System: TK-10 renal
# assayComment: NCI-60 one-dose screen, 48 h (100 = growth as untreated, 0 = no growth, -100 = all killed)
# testSettings: 10 µM unless noted
# Experimental: Growth inhibition of the TK-10 human tumor cell line is measured as a screen for anti-cancer activity. Cells are grown in 96 well plates and exposed to the test compound for 48 hours. Compounds are tested at a single concentration, which is 10^-5 M for most compounds. The reported endpoint is percent growth (GI% or GIPRCNT), where numbers from 0 - 100% represent growth inhibition, and numbers from -100% - 0 represent cell death. For example, a value of 40 represents 60% growth inhibition. […]
The panel holds about 83,000 compounds, 20% with a hit somewhere; the sample as a whole holds those more often.
quantityMeasured: growth (%)
Respond with the bare value in %.

As a guide, the following entries are already answered.
compound: c1cc[n+](C2c3ccccc3C([n+]3ccccc3)c3ccccc32)cc1 (centres undefined)
growth, %: 52
//
compound: CCOC(=O)C/C(C)=N\O
growth, %: 93.4
//
compound: CCC(C#N)(CC)c1ccccc1
growth, %: 108

Field: next compound
I would be grateful if you could share the reported growth for CCCCN(CCCC)CCCO .
85

====

# Tested on: DU-145 prostate
# assayComment: NCI-60 one-dose screen, 48 h (100 = growth as untreated, 0 = no growth, -100 = all killed)
# testSettings: 10 µM
Compounds without any hit were thinned out: in the full panel of roughly 83,000, 20% have a hit.
quantityMeasured: growth (%)
Respond with the bare value in %.

As a guide, the following entries are already answered.
molecule: Cc1cc(NC(=O)CSCC(=O)O)no1
targetOrSystem: DU-145 prostate
assayResult: 112

molecule: Cc1cc2nc(CC(=O)c3ccccc3)c(=O)[nH]c2cc1C
targetOrSystem: DU-145 prostate
assayResult: 112

molecule: Cc1ccccc1C1N=C2Oc3ccccc3C=C2C(=O)N1 (configuration not stated)
targetOrSystem: DU-145 prostate
assayResult: 20.4

molecule: COc1cc2c3cc1Oc1c(OC)c(OC)cc4c1C(Cc1ccc(O)c(c1)Oc1ccc(cc1)CC3N(C)CC2)N(C)CC4 (configuration not stated)
targetOrSystem: DU-145 prostate
assayResult: 33.4

molecule: CC(C)=NNC(N)=S
targetOrSystem: DU-145 prostate
assayResult: 88.3

I would be grateful if you could share the reported growth for OCC1OC(OC2C(O)C(CO)OC2(CO)OC2OC(CO)C(O)C(O)C2O)C(O)C(O)C1O (configuration not stated) .
116

I would be grateful if you could share the reported growth for CCN=c1cc2sc3cc(NCC)c(C)cc3nc-2cc1C .
-18.9

====

# System: K-562 leukemia
# assayComment: NCI-60 one-dose screen, 48 h (100 = growth as untreated, 0 = no growth, -100 = all killed)
# testSettings: 10 µM
This is part of a sample that, as a whole, favours compounds with a hit. Of some 83,000 tested, about 20% had one in any assay. Activity calls are given as the source filed them. How the source made its calls: active means growth percent below 10; inactive means the rest.
# maps each entry to its growth

As a guide, the following entries are already answered.
compound: N#CC(=Nc1cccc(F)c1)C1=C(O)c2ccccc2C1=O
targetOrSystem: K-562 leukemia
growth: 84.4% (inactive)
--
compound: Cc1ccc(/C(C#N)=C/c2ccc3c(c2)OCO3)cc1
targetOrSystem: K-562 leukemia
growth: 32.4% (inactive)
--
compound: CCCCOC(OCCCC)c1ccccc1
targetOrSystem: K-562 leukemia
growth: 107% (inactive)
--
compound: CC(C)CCOC(=O)c1ccccc1
targetOrSystem: K-562 leukemia
growth: 102% (inactive)
--
compound: O=C(NCO)c1ccccc1
targetOrSystem: K-562 leukemia
growth: 94.5% (inactive)
--
compound: COc1ccc(/C=C/c2cccc[n+]2C)cc1
targetOrSystem: K-562 leukemia
growth: 100% (inactive)

I would be grateful if you could share the reported growth for CC1OC(Oc2c(-c3ccc(O)c(O)c3)oc3cc(O)cc(O)c3c2=O)C(O)C(O)C1O (stereo not drawn) .
103% (inactive)

I would be grateful if you could share the reported growth for OCc1ccc(-c2ccc(-c3ccc(CO)s3)o2)s1 .
-3.52% (active)
